- Test system: Rhizoctonia solani (damping-off of cucumber)
- protocol details: Exterminating test on damping-off of cucumber (Experimental Example 3)
- Assay type: in vivo
- experimental parameters: Rhizoctonia solani, soil, 240 h, 1,000 ppm, soil drench 50 ml per pot, 10 days; read-out: Percentage of healthy seedlings
endpoint: pest or weed control at 1000 ppm (%)
Express the result in % but write the number alone.

# compound, u, pest or weed control at 1000 ppm
data = [
    ("COc1ccccc1C(=O)NC=C(Cl)Cl", "%", 60),
    ("CCCCCCCCCCCC(=O)Oc1ccccc1C(=O)NC=C(Cl)Cl", "%", 70),
]

State its pest or weed control at 1000 ppm for this compound: CCC(=O)Oc1ccccc1C(=O)NC=C(Cl)Cl
90

----------
- Tested on: Rhizoctonia solani (damping-off of cucumber)
- protocol details: Exterminating test on damping-off of cucumber (Experimental Example 3)
- Format: in vivo
- experimental parameters: Rhizoctonia solani, soil, 240 h, 1,000 ppm, soil drench 50 ml per pot, 10 days; read-out: Percentage of healthy seedlings
Entries annotated with measured pest or weed control at 1000 ppm
Express the result in % but write the number alone.

Guide cases for pest or weed control at 1000 ppm, answers given:
# compound, endpoint, u, reported result
records = [
    ("COC(=O)Oc1ccccc1C(=O)NC=C(Cl)Cl [Compound No. 16]", "pest or weed control at 1000 ppm", "%", 100),
    ("CC(=O)Oc1c(C(=O)NC=C(Cl)Cl)cccc1[N+](=O)[O-] [compound 35]", "pest or weed control at 1000 ppm", "%", 95),
    ("CC(=O)Oc1ccccc1C(=O)NC=C(Cl)Cl [Compound No. 6]", "pest or weed control at 1000 ppm", "%", 100),
]

State its pest or weed control at 1000 ppm for this compound: O=C(NC=C(Cl)Cl)c1cccc([N+](=O)[O-])c1O [compound 31]
85

State its pest or weed control at 1000 ppm for this compound: Cc1cccc(C(=O)NC=C(Cl)Cl)c1O [compound 4]
90

State its pest or weed control at 1000 ppm for this compound: O=C(NC=C(Cl)Cl)c1ccccc1OC(=O)C(Cl)Cl [compound 14]
95

----------
- System: cucumber seedlings (variety: Sagamihanjiro)
- protocol details: Phytotoxicity on cucumber seedlings (Experimental Example 2)
- Type: in vivo
- experimental parameters: 500 ppm
endpoint: Phytotoxicity

# molecule, endpoint, reported result
data = [
    ("COC(=O)NC(=S)Nc1ccccc1NC(=S)NC(=O)OC [Thiophanate methyl, reference compound]", "Phytotoxicity", "Nil"),
    ("O=C(NC=C(Cl)Cl)c1ccccc1O [Compound No. 20]", "Phytotoxicity", "Nil"),
    ("CC(C)C(=O)Oc1ccccc1C(=O)NC=C(Cl)Cl", "Phytotoxicity", "Nil"),
]
